Hello, the source for this data is patent US8334294B2, in case you need it.

- measured.on: UniProt:Q16539
- Sequence (Q16539 whole entry): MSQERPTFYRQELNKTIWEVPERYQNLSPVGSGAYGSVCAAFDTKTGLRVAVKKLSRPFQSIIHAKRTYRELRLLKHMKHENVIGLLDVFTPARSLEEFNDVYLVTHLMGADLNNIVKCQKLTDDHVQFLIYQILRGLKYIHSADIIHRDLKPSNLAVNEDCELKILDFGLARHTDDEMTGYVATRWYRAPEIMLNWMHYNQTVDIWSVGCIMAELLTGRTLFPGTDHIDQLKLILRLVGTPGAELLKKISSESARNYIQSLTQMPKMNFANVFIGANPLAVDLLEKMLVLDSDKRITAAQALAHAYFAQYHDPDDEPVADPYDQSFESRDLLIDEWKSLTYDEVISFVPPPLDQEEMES
I'd be grateful if you could share measured IC50 for these entries.

# annotated cases, reported IC50 shown
>  <chem.smiles>
O=c1cc(-c2ccc(F)cc2Cl)c2cc[n+]([O-])c(-c3c(F)cccc3F)c2[nH]1

>  <IC50>
6 nM

$$$$
>  <chem.smiles>
CN(C)c1cc(-c2ccccc2Cl)c2cc[n+]([O-])c(-c3c(Cl)cccc3Cl)c2n1

>  <IC50>
12 nM

$$$$
>  <chem.smiles>
O=c1cc(-c2ccc(F)cc2Cl)c2cc[n+]([O-])c(-c3c(Cl)cccc3Cl)c2[nH]1

>  <IC50>
3.3 nM

$$$$

Please state IC50 for every molecule in the list that follows.
1. Nc1cc(-c2ccccc2Cl)c2cc[n+]([O-])c(-c3c(Cl)cccc3Cl)c2n1
2. Nc1nc(-c2ccc(F)cc2Cl)c2cc[n+]([O-])c(-c3c(Cl)cccc3Cl)c2n1

Result ::
1: 85 nM; 2: 34 nM
